test system: M. tuberculosis H37Rv growth inhibition, 7H9 media; test: M. tuberculosis growth inhibition, HTS (AID 449762); conditions: measured here: IC90 growth inhibition;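 also: bacterial growth assessed after seven days of incubation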
Inconclusive results are not listed.
MEASURED PROPERTY: IC90

[
  {
    "COMPOUND": "Cc1ccnc(NC(=O)COc2ccc3c(c2)CCC3)c1",
    "IC90": "> 100 µM"
  },
  {
    "COMPOUND": "O=C(CCc1c[nH]c2ccccc12)N1CCN(S(=O)(=O)c2ccccc2)CC1",
    "IC90": "> 100 µM"
  },
  {
    "COMPOUND": "CCCCOC(=O)c1c(C)oc2ccc(NS(=O)(=O)c3ccc4c5c(cccc35)C(=O)N4)cc12",
    "IC90": "> 100 µM"
  },
  {
    "COMPOUND": "CC1(C)CN(c2ccccc2)N(C(=O)c2ccc(C#N)cc2)C1=O",
    "IC90": "> 100 µM"
  },
  {
    "COMPOUND": "O=[N+]([O-])c1cnc(Nc2ccc(Cl)cn2)c([N+](=O)[O-])c1",
    "IC90": "> 100 µM"
  },
  {
    "COMPOUND": "Cc1ccc(NC(=O)c2ccc(CSc3nnc(C)s3)cc2)c(C)c1",
    "IC90": "> 25 µM"
  },
  {
    "COMPOUND": "COc1ccccc1C1CC(c2c(-c3ccccc3)c3cc(Cl)ccc3[nH]c2=O)=NN1S(C)(=O)=O (stereo not given)",
    "IC90": "> 100 µM"
  },
  {
    "COMPOUND": "CC(C)(C)C(=O)N1CCN(c2ccc(NC(=O)c3ccc([N+](=O)[O-])o3)cc2)CC1",
    "IC90": "< 0.2 µM"
  }
]

// batch mode: one IC90 value per listed entry
1. Clc1ccc(-c2[nH]ncc2N=Nc2ccccc2)cc1
2. O=C1NCC(c2ccccc2)C1C(=O)N/N=C\c1ccc(-c2ccc(Cl)c(Cl)c2)o1 (stereo not given)

> 100 µM
> 100 µM

* * *

system: M. tuberculosis H37Rv growth inhibition, 7H9 media; assay: M. tuberculosis growth inhibition, HTS (AID 449762); settings: measured here: IC90 growth inhibition;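 also: bacterial growth assessed after seven days of incubation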
Results filed as inconclusive are left out.
MEASURED PROPERTY: IC90 (µM)
Give bare numbers, in µM.

[
  {
    "MOLECULE": "CC(/C=C/c1ccccc1)=N\\NC(N)=S",
    "MEASURED PROPERTY": "IC90",
    "MEASURED RESULT": 9.07
  },
  {
    "MOLECULE": "COC(=O)C(C)Oc1ccc(-c2nccc(-c3ccccn3)n2)cc1 (centres undefined)",
    "MEASURED PROPERTY": "IC90",
    "MEASURED RESULT": 4.04
  },
  {
    "MOLECULE": "CC1CCCN(Cc2c(O)ccc3c(=O)c(-c4nc5ccccc5s4)c(N)oc23)C1 (centres undefined)",
    "MEASURED PROPERTY": "IC90",
    "MEASURED RESULT": 12.7
  }
]

Turning now to a further record.
// fetch IC90 given entry FC(F)(F)c1cc(CO[C@@H]2CCCN[C@@H]2c2ccccc2)cc(C(F)(F)F)c1
28.8
